- tested system: human PKCθ full length enzyme (Homo sapiens, UniProt Q04759)
- Sequence (Q04759 whole entry): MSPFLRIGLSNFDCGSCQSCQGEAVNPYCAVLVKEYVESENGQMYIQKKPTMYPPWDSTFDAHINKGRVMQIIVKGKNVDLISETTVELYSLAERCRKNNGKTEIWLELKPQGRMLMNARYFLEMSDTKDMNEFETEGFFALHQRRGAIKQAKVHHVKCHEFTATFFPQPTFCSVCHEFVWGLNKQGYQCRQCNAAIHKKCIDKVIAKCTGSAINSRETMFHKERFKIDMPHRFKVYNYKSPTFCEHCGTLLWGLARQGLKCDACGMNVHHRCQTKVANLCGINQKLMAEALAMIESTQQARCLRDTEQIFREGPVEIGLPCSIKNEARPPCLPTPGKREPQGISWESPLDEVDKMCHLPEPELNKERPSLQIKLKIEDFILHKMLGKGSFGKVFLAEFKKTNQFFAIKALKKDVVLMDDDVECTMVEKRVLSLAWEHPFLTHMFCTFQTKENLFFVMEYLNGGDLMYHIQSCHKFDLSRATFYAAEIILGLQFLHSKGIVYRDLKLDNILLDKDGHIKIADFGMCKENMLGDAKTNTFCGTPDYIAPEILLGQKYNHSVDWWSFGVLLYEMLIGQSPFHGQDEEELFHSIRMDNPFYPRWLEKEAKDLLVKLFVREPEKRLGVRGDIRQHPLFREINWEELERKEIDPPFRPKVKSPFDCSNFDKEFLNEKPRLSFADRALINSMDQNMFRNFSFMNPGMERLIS
recorded endpoint: log10 IC50 (log10 of the value in nM)
Transform log10 | Measure IC50 | Unit nM

{"compound": "COCCNCc1cccc(-c2cc3c(Nc4ccc5[nH]ccc5c4)c(C#N)cnc3s2)c1 [Compound 165]", "log10 IC50": 2.04}
{"compound": "N#Cc1cnc2sc(-c3ccc(S(=O)(=O)NCCO)cc3)cc2c1Nc1ccc2[nH]ccc2c1 [Compound 232]", "log10 IC50": 2.53}
{"compound": "N#Cc1cnc2sc(-c3cccc(CN4CCC(CO)CC4)c3)cc2c1Nc1ccc2[nH]ccc2c1 [Compound 174]", "log10 IC50": 2.38}
{"compound": "N#Cc1cnc2sc(-c3ccccc3)cc2c1NCc1ccc2[nH]ccc2c1 [Compound 124]", "log10 IC50": 3.57}
{"compound": "Cc1c(Nc2c(C#N)cnc3sc(-c4cccc(S(N)(=O)=O)c4)cc23)ccc2[nH]ccc12 [Compound 240]", "log10 IC50": 0.78}
{"compound": "Cc1c(Nc2c(C#N)cnc3sc(-c4ccccc4)cc23)ccc2[nH]ccc12 [Compound 117]", "log10 IC50": 1.78}
{"compound": "Cc1c(Nc2c(C#N)cnc3sc(/C=C/c4ccccc4)c(C)c23)ccc2[nH]ccc12 [Compound 425]", "log10 IC50": 1.98}

Moving on to the next compound.
QUERY: Bench note: what log10 IC50 did COC(=O)Nc1ccc(-c2cc3c(Nc4ccc5[nH]ccc5c4C)c(C#N)cnc3s2)cc1 [Compound 333] show?
RESULT: 2.79

====

Endpoint: IC50. System: human PKCθ full length enzyme (Homo sapiens). Items follow.
Could you give me the number in nM? Just the number is fine.

For orientation, consider the following solved cases.
{"smiles": "N#Cc1cnc2sc(/C=C/Cc3ccccc3)cc2c1Nc1ccc2[nH]ccc2c1", "readout units": "nM", "IC50": 3700}
{"smiles": "Cc1c(Nc2c(C#N)cnc3sc(-c4ccc(S(=O)(=O)N(C)C)cc4)cc23)ccc2[nH]ccc12", "readout units": "nM", "IC50": 20}
{"smiles": "N#Cc1cnc2sc(CN3CCc4ccccc4C3)cc2c1Nc1ccc2[nH]ccc2c1", "readout units": "nM", "IC50": 1250}
{"smiles": "Cc1c(Nc2c(C#N)cnc3sc(C4=CCN(Cc5ccccc5)CC4)cc23)ccc2[nH]ccc12", "readout units": "nM", "IC50": 153}

QUERY: State its IC50 on human PKCθ full length enzyme (Homo sapiens): COC/C=C/c1cc2c(Nc3ccc4[nH]ccc4c3)c(C#N)cnc2s1
RESULT: 413

QUERY: State its IC50 on human PKCθ full length enzyme (Homo sapiens): N#Cc1c[n+]([O-])c2sc(-c3ccccc3)cc2c1Nc1ccc2[nH]ccc2c1
RESULT: 16800

QUERY: State its IC50 on human PKCθ full length enzyme (Homo sapiens): N#Cc1cnc2sc(-c3cccc(CNCCO)c3)cc2c1Nc1ccc2[nH]ccc2c1
RESULT: 30

QUERY: State its IC50 on human PKCθ full length enzyme (Homo sapiens): CONC(=O)c1ccc(-c2cc3c(Nc4ccc5[nH]ccc5c4C)c(C#N)cnc3s2)cc1
RESULT: 10

====

- tested system: human PKCθ full length enzyme (Homo sapiens)
Entries whose IC50 is below 100 nM take TRUE; entries at or above 100 nM take FALSE.

Examples with answers:
{"compound": "Cc1c(Nc2c(C#N)cnc3sc(-c4csc(CN(C)C)c4)cc23)ccc2[nH]ccc12", "category label": "TRUE"}
{"compound": "CON(C)C(=O)c1cccc(-c2cc3c(Nc4ccc5[nH]ccc5c4C)c(C#N)cnc3s2)c1", "category label": "TRUE"}
{"compound": "CNS(=O)(=O)c1cccc(-c2cc3c(Nc4ccc5[nH]ccc5c4C)c(C#N)cnc3s2)c1", "category label": "TRUE"}

QUERY: Check if IC50 falls below 100 nM for Cc1c(Nc2c(C#N)cnc3sc(-c4ccc(S(N)(=O)=O)cc4)cc23)ccc2[nH]ccc12 .
RESULT: TRUE

====

Endpoint: pIC50. System: human PKCθ full length enzyme (Homo sapiens). Items follow.
# log scale: pIC50 equals minus log10 of the concentration in mol/L

QUERY: State its pIC50 on human PKCθ full length enzyme (Homo sapiens): N#Cc1cnc2sc(-c3cccc(CN4CC[C@@H](O)C4)c3)cc2c1Nc1ccc2[nH]ccc2c1
RESULT: 7.16

QUERY: State its pIC50 on human PKCθ full length enzyme (Homo sapiens): Cc1c(Nc2c(C#N)cnc3sc(-c4cccc(NS(C)(=O)=O)c4)c(C)c23)ccc2[nH]ccc12
RESULT: 6.92

QUERY: State its pIC50 on human PKCθ full length enzyme (Homo sapiens): Cc1c(Nc2c(C#N)cnc3sc(/C=C/C(=O)NN(C)C)cc23)ccc2[nH]ccc12
RESULT: 6.98

QUERY: State its pIC50 on human PKCθ full length enzyme (Homo sapiens): CNS(=O)(=O)c1ccc(-c2sc3ncc(C#N)c(Nc4ccc5[nH]ccc5c4C)c3c2C)cc1
RESULT: 7.54

====

Structures can show the parent of a compound that is named as a salt.
Reported values of melting point for individual entries

For orientation, consider the following solved cases.
{"compound": "Cc1c(Nc2c(C#N)cnc3sc(C4CCN(Cc5ccccc5)C4)cc23)ccc2[nH]ccc12 (centres unmarked) (as salt: HCl)", "melting point": "185 °C (dec.)"}
{"compound": "N#Cc1cnc2sc(-c3ccc(CN4CCOCC4)cc3)cc2c1Nc1ccc2[nH]ccc2c1", "melting point": "251 to 253 °C"}
{"compound": "Cc1c(Nc2c(C#N)cnc3sc(/C=C/C(=O)O)c(C)c23)ccc2[nH]ccc12", "melting point": "329 °C"}
{"compound": "Br.N#Cc1cnc2scc(Br)c2c1Nc1ccc2[nH]ccc2c1", "melting point": "249 to 251 °C"}

QUERY: Bench note: what melting point did N#Cc1cnc2sc(-c3cccc(C=O)c3)cc2c1Nc1cccc2[nH]ccc12 show?
RESULT: > 245 °C

====

recorded endpoint: melting point

{"smiles": "CN1CCN(CCCCc2cc3c(Nc4ccc5[nH]ccc5c4)c(C#N)cnc3s2)CC1", "recorded result": "120 °C (dec.)"}
{"smiles": "N#Cc1cnc2sc(-c3ccccc3)cc2c1-c1ccc2[nH]ccc2c1", "recorded result": "> 245 °C"}
{"smiles": "N#Cc1cnc2sc(CCc3ccccc3)cc2c1Nc1ccc2[nH]ccc2c1", "recorded result": "150 °C (dec.)"}
{"smiles": "N#Cc1cnc2sc(-c3ccc(CN)cc3)cc2c1Nc1ccc2[nH]ccc2c1", "recorded result": "> 260 °C"}
{"smiles": "Cc1c(Nc2c(C#N)cnc3sc(C#Cc4coc(CN5CCN(C)CC5)c4)cc23)ccc2[nH]ccc12", "recorded result": "216 to 218 °C"}
{"smiles": "Cl.N#Cc1cnc2sc(I)cc2c1Nc1ccc2[nH]ccc2c1", "recorded result": "250 to 252 °C"}
{"smiles": "CN1CCN(Cc2ccc(-c3cc4c(Nc5ccc6[nH]ccc6c5)c(C#N)cnc4s3)nc2)CC1", "recorded result": "> 245 °C"}
{"smiles": "Cc1c(Nc2c(C#N)cnc3sc(C4=CCN(S(C)(=O)=O)CC4)cc23)ccc2[nH]ccc12", "recorded result": "228 °C"}

Moving on to the next compound.
QUERY: Bench note: what melting point did Cc1c(Nc2c(C#N)cnc3scc(CO)c23)ccc2[nH]ccc12 show?
RESULT: 230 °C

====

- tested system: PKCθ (Homo sapiens, UniProt Q04759)
Entries whose IC50 is below 100 nM take TRUE; entries at or above 100 nM take FALSE.

Examples with answers:
{"molecule": "CN(C)C(=O)c1cccc(-c2cc3c(Nc4ccc5[nH]ccc5c4)c(C#N)cnc3s2)n1", "category label": "FALSE"}
{"molecule": "N#Cc1cnc2sc(-c3ccccc3)cc2c1Nc1cccc2cc[nH]c12", "category label": "FALSE"}
{"molecule": "Cn1ccc2cc(Nc3c(C#N)cnc4sc(-c5ccccc5)cc34)ccc21", "category label": "FALSE"}

Kindly consider the entry below.
QUERY: Check if IC50 falls below 100 nM for N#Cc1cnc2sc(-c3ccccc3CN3CCC(O)CC3)cc2c1Nc1ccc2[nH]ccc2c1 .
RESULT: FALSE

====

Endpoint: IC50. System: human PKCθ full length enzyme (Homo sapiens, UniProt Q04759). Items follow.
Put down the number, then write its unit next to it.

For orientation, consider the following solved cases.
{"compound": "Cc1cc(CN(C)C)cc(-c2cc3c(Nc4ccc5[nH]ccc5c4C)c(C#N)cnc3s2)c1 [Compound 454]", "IC50": "8 nM"}
{"compound": "Cc1c(Nc2c(C#N)cnc3sc(-c4cc(C=O)ccc4F)cc23)ccc2[nH]ccc12 [Compound 389]", "IC50": "18 nM"}
{"compound": "COc1c(CN(C)C)cccc1-c1cc2c(Nc3ccc4[nH]ccc4c3C)c(C#N)cnc2s1 [Compound 526]", "IC50": "12 nM"}

QUERY: Bench note: what IC50 did Cc1c(Nc2c(C#N)cnc3sc(-c4cc5ccccc5[nH]4)cc23)ccc2[nH]ccc12 [Compound 434] show?
RESULT: 70 nM

This collection of values is drawn from patent US20070082880A1.
